// data source = patent US20020115623A1

Biological target: α2,6-sialyltransferase (Gallus gallus, UniProt Q92183)
Construct: made in house
Sequence (Q92183 whole entry): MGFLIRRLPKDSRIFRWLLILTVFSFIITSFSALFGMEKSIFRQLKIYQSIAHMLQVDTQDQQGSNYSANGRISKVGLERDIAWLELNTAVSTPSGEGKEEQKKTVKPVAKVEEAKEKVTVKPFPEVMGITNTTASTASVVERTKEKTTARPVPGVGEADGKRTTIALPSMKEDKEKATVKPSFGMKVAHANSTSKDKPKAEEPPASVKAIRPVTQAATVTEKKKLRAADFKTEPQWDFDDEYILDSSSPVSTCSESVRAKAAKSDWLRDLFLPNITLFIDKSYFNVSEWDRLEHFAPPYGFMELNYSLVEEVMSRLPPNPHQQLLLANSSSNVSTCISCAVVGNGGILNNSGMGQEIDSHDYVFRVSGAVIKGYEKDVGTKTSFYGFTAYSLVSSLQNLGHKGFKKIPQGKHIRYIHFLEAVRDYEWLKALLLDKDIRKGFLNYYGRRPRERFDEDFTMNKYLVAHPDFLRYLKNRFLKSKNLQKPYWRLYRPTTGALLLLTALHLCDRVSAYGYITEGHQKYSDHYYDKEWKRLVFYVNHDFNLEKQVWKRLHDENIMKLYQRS
Test: Assay of α2,6-sialyltransferase activity
Format: biochemical
Details: concentration of inhibitor in assay 20 μM
So I've got a bunch of compounds here, and I need their Percentage of inhibition (%) values.
Write your answer as a measured quantity: the number, then the unit.

Data request: May I ask what Percentage of inhibition (%) has been recorded for "CC1(C)C[C@@H](O)[C@]2(C)CC[C@]3(C)C(=CC[C@@H]4[C@@]5(C)CC[C@H](O[C@@H]6O[C@H](C(=O)O)[C@@H](O)[C@H](O)[C@H]6O[C@@H]6O[C@H](CO)[C@H](O)[C@H](O)[C@H]6O)[C@](C)(CO)[C@@H]5CC[C@]43C)[C@@H]2C1" ?
Data returned: 23.1%

Data request: May I ask what Percentage of inhibition (%) has been recorded for CC1(C)CC(O)C2(C)CCC3(C)C(=CCC4C5(C)CCC(OC6OC(C(=O)O)C(O)C(O)C6OC6OC(CO)C(O)C(O)C6OC6OC(CO)C(O)C(O)C6O)C(C)(CO)C5CCC43C)C2C1 (centres unmarked) ?
Data returned: 32.9%

Data request: May I ask what Percentage of inhibition (%) has been recorded for "C[C@@H]1O[C@@H](O[C@H]2[C@H](O[C@H]3[C@H](O[C@H]4CC[C@@]5(C)[C@@H](CC[C@]6(C)[C@@H]5CC=C5[C@@H]7CC(C)(C)C[C@@H](O)[C@]7(C)CC[C@]56C)[C@@]4(C)CO)O[C@H](C(=O)O)[C@@H](O)[C@@H]3O)O[C@H](CO)[C@H](O)[C@@H]2O)[C@H](O)[C@H](O)[C@H]1O" ?
Data returned: 76.9%

Data request: May I ask what Percentage of inhibition (%) has been recorded for CC1OC(OC2C(OC3C(OC4CCC5(C)C(CCC6(C)C5CC=C5C7CC(C)(C)CC(O)C7(C)CCC56C)C4(C)C)OC(C(=O)O)C(O)C3O)OC(CO)C(O)C2O)C(O)C(O)C1O (centres unmarked) ?
Data returned: 83.2%

Data request: May I ask what Percentage of inhibition (%) has been recorded for "C[C@@H]1O[C@@H](O[C@H]2[C@H](O[C@H]3[C@H](O[C@H]4CC[C@@]5(C)[C@@H](CC[C@]6(C)[C@@H]5CC=C5[C@@H]7CC(C)(C)C[C@@H](O)[C@]7(C)CC[C@]56C)[C@@]4(C)CO)O[C@H](C(=O)O)[C@@H](O)[C@@H]3O)OC[C@H](O)[C@@H]2O)[C@H](O)[C@H](O)[C@H]1O" ?
Data returned: 64.4%
